# Protocol Text: Ex vivo biodistribution of 177Lu-labeled ligands in PC-3 tumor-bearing mice
# Experimental Conditions: mouse, adrenal glands, intravenous, 4 h pi, n = 5; read-out: Adrenal glands uptake
# Procedure: SPECT/CT imaging was conducted using an MI Labs (Houten, The Netherlands) U-SPECT-II/CT scanner with a custom-made ultra-high sensitivity big mouse collimator (2 mm pinhole size) following published procedure. The experiments were obtained in accordance with the same protocol established in the PET/CT imaging and ex vivo biodistributions section. The mice were used for SPECT/CT imaging and ex vivo biodistributions studies once the tumors reached a diameter of 5–8 mm. […]
As shown below, each of these compounds has a reported tissue uptake at 4 h value.
Measurement Label: tissue uptake at 4 h (%ID/g)

Compound	Units Text	Assay Result
CC(C)C[C@H](NC(=O)[C@H](Cc1cnc[nH]1)N(C)C(=O)CNC(=O)[C@@H](NC(=O)[C@H](C)NC(=O)[C@H](Cc1c[nH]c2ccccc12)NC(=O)[C@H](CCC(N)=O)NC(=O)[C@@H](Cc1ccccc1)NC(=O)CN1CCC(NC(=O)CN2CCN(CC(=O)O)CCN(CC(=O)O)CCN(CC(=O)O)CC2)CC1)C(C)(C)C)C(=O)N1CC(F)(F)C[C@H]1C(N)=O [[^177Lu]Lu-LW02060, metal not drawn]	%ID/g	0.33
CC(C)C[C@@H](CN1CC(F)(F)C[C@H]1C(N)=O)NC(=O)[C@H](Cc1c[nH]cn1)NC(=O)CN(C)C(=O)[C@@H](NC(=O)[C@H](C)NC(=O)[C@H](Cc1c[nH]c2ccccc12)NC(=O)[C@H](CCC(N)=O)NC(=O)[C@@H](Cc1ccccc1)NC(=O)CN1CCC(NC(=O)CN2CCN(CC(=O)O)CCN(CC(=O)O)CCN(CC(=O)O)CC2)CC1)C(C)C [[^177Lu]Lu-LW02080, metal not drawn]	%ID/g	0.17

###

As shown below, each of these molecules has a reported tissue uptake at 72 h value.
# Protocol Text: Ex vivo biodistribution of 177Lu-labeled ligands in PC-3 tumor-bearing mice
# Experimental Conditions: mouse, spleen, intravenous, 72 h pi, n = 5; read-out: Spleen uptake

Molecule	Units Text	tissue uptake at 72 h
CC(C)C[C@H](NC(=O)[C@H](Cc1cnc[nH]1)N(C)C(=O)CNC(=O)[C@@H](NC(=O)[C@H](C)NC(=O)[C@H](Cc1c[nH]c2ccccc12)NC(=O)[C@H](CCC(N)=O)NC(=O)[C@@H](Cc1ccccc1)NC(=O)CN1CCC(NC(=O)CN2CCN(CC(=O)O)CCN(CC(=O)O)CCN(CC(=O)O)CC2)CC1)C(C)(C)C)C(=O)N1CC(F)(F)C[C@H]1C(N)=O [[^177Lu]Lu-LW02060, metal not drawn]	%ID/g	0.07
CC(C)C[C@@H](CN1CC(F)(F)C[C@H]1C(N)=O)NC(=O)[C@H](Cc1c[nH]cn1)NC(=O)CN(C)C(=O)[C@@H](NC(=O)[C@H](C)NC(=O)[C@H](Cc1c[nH]c2ccccc12)NC(=O)[C@H](CCC(N)=O)NC(=O)[C@@H](Cc1ccccc1)NC(=O)CN1CCC(NC(=O)CN2CCN(CC(=O)O)CCN(CC(=O)O)CCN(CC(=O)O)CC2)CC1)C(C)C [[^177Lu]Lu-LW02080, metal not drawn]	%ID/g	0.04

###

# Protocol Text: Ex vivo biodistribution of 177Lu-labeled ligands in PC-3 tumor-bearing mice
# Experimental Conditions: mouse, bone, intravenous, 24 h pi, n = 5; read-out: Bone uptake
As shown below, each of these compounds has a reported tissue uptake at 24 h value.

Compound	tissue uptake at 24 h
CC(C)C[C@H](NC(=O)[C@H](Cc1cnc[nH]1)N(C)C(=O)CNC(=O)[C@@H](NC(=O)[C@H](C)NC(=O)[C@H](Cc1c[nH]c2ccccc12)NC(=O)[C@H](CCC(N)=O)NC(=O)[C@@H](Cc1ccccc1)NC(=O)CN1CCC(NC(=O)CN2CCN(CC(=O)O)CCN(CC(=O)O)CCN(CC(=O)O)CC2)CC1)C(C)(C)C)C(=O)N1CC(F)(F)C[C@H]1C(N)=O [[^177Lu]Lu-LW02060, metal not drawn]	0.02 %ID/g
CC(C)C[C@@H](CN1CC(F)(F)C[C@H]1C(N)=O)NC(=O)[C@H](Cc1c[nH]cn1)NC(=O)CN(C)C(=O)[C@@H](NC(=O)[C@H](C)NC(=O)[C@H](Cc1c[nH]c2ccccc12)NC(=O)[C@H](CCC(N)=O)NC(=O)[C@@H](Cc1ccccc1)NC(=O)CN1CCC(NC(=O)CN2CCN(CC(=O)O)CCN(CC(=O)O)CCN(CC(=O)O)CC2)CC1)C(C)C [[^177Lu]Lu-LW02080, metal not drawn]	0.02 %ID/g
